These measurements were taken from patent US20130251728A1.

# TARGET SYSTEM: T1, hGCGR-hFc (human)
# T1 construct: also called REGN316
# T1 sequence (chain, as listed by the source limits assumed): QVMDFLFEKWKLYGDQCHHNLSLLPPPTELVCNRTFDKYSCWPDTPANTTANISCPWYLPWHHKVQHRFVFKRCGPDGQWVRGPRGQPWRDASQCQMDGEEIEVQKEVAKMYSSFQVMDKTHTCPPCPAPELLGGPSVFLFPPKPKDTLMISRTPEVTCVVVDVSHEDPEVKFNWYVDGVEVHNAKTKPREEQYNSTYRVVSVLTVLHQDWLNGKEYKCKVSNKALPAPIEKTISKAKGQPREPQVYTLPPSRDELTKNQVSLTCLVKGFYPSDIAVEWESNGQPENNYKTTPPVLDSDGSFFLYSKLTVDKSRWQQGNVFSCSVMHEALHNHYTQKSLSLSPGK
# ASSAY DETAILS: SPR Biacore T100, 37C, mAb captured, antigen flowed
The following binders are listed with their measured Kd values.
Number in nM, nothing else.

H4H1765N (antibody, V domains shown, Anti-GCGR antibody from hybridoma; the controls are called isotype-matched hIgG4) VH: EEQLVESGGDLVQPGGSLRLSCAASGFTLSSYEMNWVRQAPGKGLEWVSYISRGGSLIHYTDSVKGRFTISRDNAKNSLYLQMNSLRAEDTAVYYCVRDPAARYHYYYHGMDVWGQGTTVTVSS VL: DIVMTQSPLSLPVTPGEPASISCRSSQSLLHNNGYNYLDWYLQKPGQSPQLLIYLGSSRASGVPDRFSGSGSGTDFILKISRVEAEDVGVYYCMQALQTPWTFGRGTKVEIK: 0.0537
H4H1327P (antibody, V domains shown, also called anti-GCGR (hIgG4) antibody designated H4H1327P) VH: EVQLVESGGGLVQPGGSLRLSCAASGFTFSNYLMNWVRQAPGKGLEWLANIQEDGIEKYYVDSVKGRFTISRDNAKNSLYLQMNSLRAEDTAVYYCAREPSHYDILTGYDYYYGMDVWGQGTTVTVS VL: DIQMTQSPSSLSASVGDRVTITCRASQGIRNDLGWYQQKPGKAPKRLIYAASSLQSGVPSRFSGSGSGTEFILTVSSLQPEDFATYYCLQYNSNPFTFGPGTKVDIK: 0.157

Next up:
Incoming: Which Kd reading was recorded for the binder H4H1339P (antibody, V domains shown, Fully human anti-GCGR antibody; the controls are called isotype-matched hIgG4) VH: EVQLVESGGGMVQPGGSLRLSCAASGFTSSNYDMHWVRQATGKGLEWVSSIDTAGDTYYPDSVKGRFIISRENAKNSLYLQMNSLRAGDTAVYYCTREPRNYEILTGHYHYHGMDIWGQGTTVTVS VL: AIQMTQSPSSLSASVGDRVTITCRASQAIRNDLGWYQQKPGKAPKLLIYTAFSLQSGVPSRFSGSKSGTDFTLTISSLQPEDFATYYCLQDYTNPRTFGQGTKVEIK ?
Outgoing: 0.318
